Every entry's value here was drawn from patent US12168654B2.

Quick list: Tmax per entry.
# Assay name: Pharmacokinetic properties in mice (IV and PO)
# Conditions: Sprague-Dawley, in vivo, po, 5 mg/kg
Report the value in h with no unit label.

[2H]C([2H])([2H])[C@]([2H])(c1cccc(-c2ncc(OCC3CCN(C)CC3)cn2)c1)n1nc(-c2cccc(C#N)c2)ccc1=O [(R)-14]
4

// C[C@H](c1cccc(-c2ncc(OCC3CCN(C)CC3)cn2)c1)n1nc(-c2cccc(C#N)c2)ccc1=O [(R)-5b] : Tmax value = 2

====

# Assay name: Pharmacokinetic properties in mice (IV and PO)
# Conditions: Sprague-Dawley (SD), in vivo, iv, 2 mg/kg
Measurement label: AUC(0-inf)
Value and unit, in that order.

[2H]C([2H])([2H])[C@]([2H])(c1cccc(-c2ncc(OCC3CCN(C)CC3)cn2)c1)n1nc(-c2cccc(C#N)c2)ccc1=O [(R)-14]
2440 ng·h/mL

Now for another entry.
// C[C@H](c1cccc(-c2ncc(OCC3CCN(C)CC3)cn2)c1)n1nc(-c2cccc(C#N)c2)ccc1=O [(R)-5b] : AUC(0-inf) value = 2140 ng·h/mL

====

# Assay name: Pharmacokinetic properties in mice (IV and PO)
# Conditions: Sprague-Dawley, mouse, in vivo; IV 2 mg/kg; read-out: Vz
Measurement label: Vd
Value and unit, in that order.

// CN1CCC(COc2cnc(-c3cccc(Cn4nc(-c5cccc(C#N)c5)ccc4=O)c3)nc2)CC1 [Tepotinib, reference compound] : Vd value = 9.18 L/kg

====

# Assay name: Pharmacokinetic properties in mice (IV and PO)
# Conditions: Sprague-Dawley (SD), mouse, in vivo; PO 5 mg/kg vs IV 2 mg/kg; read-out: F % (bioavailability)
Measurement label: bioavailability (%)
Report the value in % with no unit label.

// CN1CCC(COc2cnc(-c3cccc(Cn4nc(-c5cccc(C#N)c5)ccc4=O)c3)nc2)CC1 [Tepotinib, reference compound] : bioavailability value = 67.8

====

# Assay name: Pharmacokinetic properties in mice (IV and PO)
# Conditions: Sprague-Dawley (SD), mouse, in vivo; IV 2 mg/kg; read-out: T1/2 (converted)
Measurement label: half-life (h)
Report the value in h with no unit label.

// CN1CCC(COc2cnc(-c3cccc(Cn4nc(-c5cccc(C#N)c5)ccc4=O)c3)nc2)CC1 [Tepotinib, reference compound] : half-life value = 1.79

====

# Assay name: Pharmacokinetic properties in mice (IV and PO)
# Conditions: Sprague-Dawley, mouse, in vivo; PO 5 mg/kg; read-out: Cmax
Measurement label: Cmax (ng/mL)
Report the value in ng/mL with no unit label.

// CN1CCC(COc2cnc(-c3cccc(Cn4nc(-c5cccc(C#N)c5)ccc4=O)c3)nc2)CC1 [Tepotinib, reference compound] : Cmax value = 211

====

# Test system: human highly metastatic hepatoma cells MHCC-97H
# Assay name: MTT anti-tumor cell proliferation test
# Assay type: cell-based
# Conditions: Homo sapiens, MHCC97H; MTT, cultivation 72 hours; Table 4; read-out: Human highly metastatic hepatoma cell MHCC-97H (μM), inhibitory activity
Quick list: IC50 per entry.

CN1CCC(COc2cnc(-c3cccc(Cn4nc(-c5cccc(C#N)c5)ccc4=O)c3)nc2)CC1
0.0134 µM
[2H][C@@](C)(c1cccc(-c2ncc(OCC3CCN(C)CC3)cn2)c1)n1nc(-c2cccc(C#N)c2)ccc1=O
0.0033 µM

// [2H]C([2H])([2H])[C@]([2H])(c1cccc(-c2ncc(OCC3CCN(C)CC3)cn2)c1)n1nc(-c2cccc(C#N)c2)ccc1=O : IC50 value = 0.0037 µM

====

# Assay name: in vitro
# Conditions: SD, rat, microsomes
Quick list: half-life per entry.
Report the value in min with no unit label.

C[C@H](c1cccc(-c2ncc(OCC3CCN(C)CC3)cn2)c1)n1nc(-c2cccc(C#N)c2)ccc1=O [(R)-5b]
26.8
[2H]C([2H])([2H])[C@]([2H])(c1cccc(-c2ncc(OCC3CCN(C)CC3)cn2)c1)n1nc(-c2cccc(C#N)c2)ccc1=O [(R)-14]
35

// CN1CCC(COc2cnc(-c3cccc(Cn4nc(-c5cccc(C#N)c5)ccc4=O)c3)nc2)CC1 [Tepotinib, reference compound] : half-life value = 20.7

====

# Assay name: Pharmacokinetic properties in mice (IV and PO)
# Conditions: Sprague-Dawley (SD), in vivo, iv, 2 mg/kg
Quick list: clearance per entry.
Report the value in mL/min/kg with no unit label.

// C[C@H](c1cccc(-c2ncc(OCC3CCN(C)CC3)cn2)c1)n1nc(-c2cccc(C#N)c2)ccc1=O [(R)-5b] : clearance value = 15.5

// [2H]C([2H])([2H])[C@]([2H])(c1cccc(-c2ncc(OCC3CCN(C)CC3)cn2)c1)n1nc(-c2cccc(C#N)c2)ccc1=O [(R)-14] : clearance value = 13.7

====

# Assay name: Pharmacokinetic properties in mice (IV and PO)
# Conditions: Sprague-Dawley, in vivo, po, 5 mg/kg
Quick list: Cmax per entry.
Report the value in ng/mL with no unit label.

[2H]C([2H])([2H])[C@]([2H])(c1cccc(-c2ncc(OCC3CCN(C)CC3)cn2)c1)n1nc(-c2cccc(C#N)c2)ccc1=O [(R)-14]
614

// C[C@H](c1cccc(-c2ncc(OCC3CCN(C)CC3)cn2)c1)n1nc(-c2cccc(C#N)c2)ccc1=O [(R)-5b] : Cmax value = 495

====

Quick list: bioavailability per entry.
# Assay name: Pharmacokinetic properties in mice (IV and PO)
# Conditions: Sprague-Dawley (SD), in vivo, po, 5 mg/kg
Value and unit, in that order.

C[C@H](c1cccc(-c2ncc(OCC3CCN(C)CC3)cn2)c1)n1nc(-c2cccc(C#N)c2)ccc1=O [(R)-5b]
86%

Now for another entry.
// [2H]C([2H])([2H])[C@]([2H])(c1cccc(-c2ncc(OCC3CCN(C)CC3)cn2)c1)n1nc(-c2cccc(C#N)c2)ccc1=O [(R)-14] : bioavailability value = 104%

====

# Assay name: Pharmacokinetic properties in mice (IV and PO)
# Conditions: Sprague-Dawley, in vivo, iv, 2 mg/kg
Quick list: Vd per entry.
Report the value in L/kg with no unit label.

[2H]C([2H])([2H])[C@]([2H])(c1cccc(-c2ncc(OCC3CCN(C)CC3)cn2)c1)n1nc(-c2cccc(C#N)c2)ccc1=O [(R)-14]
5.29

// C[C@H](c1cccc(-c2ncc(OCC3CCN(C)CC3)cn2)c1)n1nc(-c2cccc(C#N)c2)ccc1=O [(R)-5b] : Vd value = 5.69

====

# Assay name: Pharmacokinetic properties in mice (IV and PO)
# Conditions: Sprague-Dawley (SD), in vivo, iv, 2 mg/kg
Measurement label: half-life (h)
Report the value in h with no unit label.

C[C@H](c1cccc(-c2ncc(OCC3CCN(C)CC3)cn2)c1)n1nc(-c2cccc(C#N)c2)ccc1=O [(R)-5b]
4.23

// [2H]C([2H])([2H])[C@]([2H])(c1cccc(-c2ncc(OCC3CCN(C)CC3)cn2)c1)n1nc(-c2cccc(C#N)c2)ccc1=O [(R)-14] : half-life value = 4.48

====

# Assay name: Pharmacokinetic properties in mice (IV and PO)
# Conditions: Sprague-Dawley, mouse, in vivo; PO 5 mg/kg; read-out: Tmax
Measurement label: Tmax (h)
Report the value in h with no unit label.

// CN1CCC(COc2cnc(-c3cccc(Cn4nc(-c5cccc(C#N)c5)ccc4=O)c3)nc2)CC1 [Tepotinib, reference compound] : Tmax value = 1

====

# Assay name: Pharmacokinetic properties in mice (IV and PO)
# Conditions: Sprague-Dawley (SD), mouse, in vivo; IV 2 mg/kg; read-out: CL (converted)
Measurement label: clearance (mL/min/kg)
Report the value in mL/min/kg with no unit label.

// CN1CCC(COc2cnc(-c3cccc(Cn4nc(-c5cccc(C#N)c5)ccc4=O)c3)nc2)CC1 [Tepotinib, reference compound] : clearance value = 59.2

====

# Assay name: Pharmacokinetic properties in mice (IV and PO)
# Conditions: Sprague-Dawley (SD), mouse, in vivo; PO 5 mg/kg; read-out: AUC0-∞
Measurement label: AUC(0-inf) (ng·h/mL)
Report the value in ng·h/mL with no unit label.

// CN1CCC(COc2cnc(-c3cccc(Cn4nc(-c5cccc(C#N)c5)ccc4=O)c3)nc2)CC1 [Tepotinib, reference compound] : AUC(0-inf) value = 982

====

# Assay name: Pharmacokinetic properties in mice (IV and PO)
# Conditions: Sprague-Dawley (SD), mouse, in vivo; IV 2 mg/kg; read-out: AUC0-∞
Measurement label: AUC(0-inf) (ng·h/mL)
Report the value in ng·h/mL with no unit label.

// CN1CCC(COc2cnc(-c3cccc(Cn4nc(-c5cccc(C#N)c5)ccc4=O)c3)nc2)CC1 [Tepotinib, reference compound] : AUC(0-inf) value = 563
